The entries below are paired with their reported Plant response rating, Sedge, Umbrella.
tested on: sedge, umbrella (small-flower umbrella sedge, Cyperus difformis); test: Test C flooded paddy test: sedge, umbrella; assay type: in vivo; conditions: Flood (flooded paddy test), 62 g ai/ha; visual rating after 13 to 15 days, scale 0 to 100 (0 no effect, 100 complete control)

>  <smiles string>
Cc1nn(-c2ccc(C(F)(F)F)cc2)nc1Cn1c(Cl)nc(C(F)(F)F)c1Cl

>  <Plant response rating, Sedge, Umbrella>
0

$$$$
>  <smiles string>
CCc1nn(-c2ccc(F)cc2)nc1Cn1ccc(C(F)(F)C(F)(F)F)n1

>  <Plant response rating, Sedge, Umbrella>
0

$$$$
>  <smiles string>
Cc1nn(-c2ccc(C(F)(F)F)cc2)nc1Oc1ccnc(OC(F)F)c1

>  <Plant response rating, Sedge, Umbrella>
0

$$$$
>  <smiles string>
COc1cc(Cc2nn(-c3ccc(C(F)(F)F)cc3)nc2C)ccn1

>  <Plant response rating, Sedge, Umbrella>
0

$$$$
>  <smiles string>
Cc1nn(-c2ccc(C(F)(F)F)cn2)nc1Oc1ccnc(C(F)(F)F)c1

>  <Plant response rating, Sedge, Umbrella>
75

$$$$
